- Test system: HCT-116
- procedure-text: NCI tumour cell line growth inhibition, 48 h
Activity calls are given as the source filed them. Rule as the data show it: active = GI50 up to about 1.1 µM and inactive = higher.
metric-name: GI50

For reference, reported GI50 for COc1cc(S(=O)(=O)Nc2nc(-c3ccc(/N=C/c4cccs4)cc3)cs2)ccc1Cl stands at 54.6 µM (inactive)

For reference, reported GI50 for CCCCCCCCCc1cc(=O)c2c(O)cccc2o1 stands at 30.3 µM (inactive)

====

- System: SN12C
- procedure-text: NCI tumour cell line growth inhibition, 48 h
The source made the active and inactive calls. No stated cut-off is given here; in the data, active = GI50 up to about 1.1 µM and inactive = higher.
metric-name: GI50

A selection of reference data follows.
| compound | assayed-system | GI50 |
| --- | --- | --- |
| CC(=O)c1cccc(N2COC(C)(C)c3nc4ccccc4n3C2)c1 | SN12C | > 100 µM (inactive) |
| CCOP1(=O)CC(C)=C(Cl)C(O)C1 (stereo unspecified) | SN12C | > 100 µM (inactive) |
| NC1=NS(=O)(=O)Nc2[nH]c(-c3ccccc3)nc21 | SN12C | > 100 µM (inactive) |
| CC(=O)Oc1cc2c(cc1OC(C)=O)OCC(c1ccccc1)C2 (stereo unspecified) | SN12C | 26.4 µM (inactive) |
| Cc1cc(Cc2cc(C)cc(C(C)(C)C)c2O)c(O)c(Cc2cc(C)cc(C(C)(C)C)c2O)c1 | SN12C | 2.34 µM (inactive) |

Field: next compound
For reference, reported GI50 for CCOC1=NC(C(F)(F)F)(C(F)(F)F)N=C(N2CCCCC2)O1 stands at > 100 µM (inactive)

Data credit: ChEMBL document CHEMBL1201862
